Cited source: ChEMBL document CHEMBL4321821

- Protocol text: Cmax in human at 450 mg, po
- Type: ADME
- Design: dose 450 mg, route oral
- Protocol conditions: in vivo
Assay endpoint: Cmax (nM)
The response must be a number in nM with no trailing unit.

Documented Cmax of C[N+]1(CC2CC2)CC[C@]23c4c5ccc(O)c4O[C@H]2C(=O)CC[C@@]3(O)[C@H]1C5 (stereo partly specified) [METHYLNALTREXONE] : 140

###

- Test target: OCT1 (SLC22A1) (Homo sapiens, UniProt O15245)
- Sequence (O15245 whole entry): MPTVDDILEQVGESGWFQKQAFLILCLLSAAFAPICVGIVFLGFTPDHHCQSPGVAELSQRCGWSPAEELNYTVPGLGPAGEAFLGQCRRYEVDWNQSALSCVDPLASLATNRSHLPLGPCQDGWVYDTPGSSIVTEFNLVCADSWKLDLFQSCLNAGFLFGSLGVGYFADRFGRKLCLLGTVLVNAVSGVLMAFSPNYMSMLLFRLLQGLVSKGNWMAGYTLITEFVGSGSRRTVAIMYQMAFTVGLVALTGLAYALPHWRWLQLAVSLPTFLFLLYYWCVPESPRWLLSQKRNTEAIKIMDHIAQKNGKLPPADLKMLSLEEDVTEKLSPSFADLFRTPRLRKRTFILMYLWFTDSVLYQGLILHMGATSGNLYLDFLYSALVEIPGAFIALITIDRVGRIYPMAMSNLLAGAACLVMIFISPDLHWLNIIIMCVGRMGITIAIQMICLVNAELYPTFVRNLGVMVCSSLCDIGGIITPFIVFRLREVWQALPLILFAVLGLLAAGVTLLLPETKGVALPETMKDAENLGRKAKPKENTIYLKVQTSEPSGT
- Protocol text: Substrate activity at human OCT1 expressed in HEK293 cells assessed as increase in compound uptake at 0.05 uM incubated for 2 mins by LC-MS/MS analysis relative to control empty vector transfected cells
- Assay type: cell-based
- Protocol conditions: HEK293 cells that express human OCT1, read-out: FC
Field: uptake ratio at 2 min, 0.05 µM. Provide a value for each of the molecules that follow.
Provide a numeric answer; units are not to be included.

Short answer for O=C1CC[C@@]2(O)[C@H]3Cc4ccc(O)c5c4[C@@]2(CCN3CC2CC2)[C@H]1O5 [NALTREXONE] : uptake ratio at 2 min, 0.05 µM was 0.8

# molecule CN1CC[C@]23c4c5ccc(O)c4O[C@H]2C(=O)CC[C@@]3(O)[C@H]1C5 [OXYMORPHONE] ; its uptake ratio at 2 min, 0.05 µM = 2.4

Sample CN1CC[C@]23CCCC[C@H]2[C@H]1Cc1ccc(O)cc13 [LEVORPHANOL] ; uptake ratio at 2 min, 0.05 µM observed: 1.5

uptake ratio at 2 min, 0.05 µM reading for Oc1ccc2c(c1)[C@@]13CCCC[C@H]1[C@@H](C2)NCC3 [NORLEVORPHANOL] : 14
